Would you kindly list self-cleavage for each of these variants?
B1: LINE1-mini (parent)
chain: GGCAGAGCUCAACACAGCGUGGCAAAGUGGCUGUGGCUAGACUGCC

Variants of: B1
Assay: self-cleavage, relative activity (ratio to wild type); higher = more cleavage; in vitro, sequencing; the parent is a self-cleaving ribozyme
Answers are plain numbers.

Input line: Record request: self-cleavage value, item GGCAGAGCUCAACACAGCGUGGCAAAUUGGCUGUGGCUAGACUGCC
Output line: 0.83

Your task in this section: give self-cleavage for each listed record.
1. GGCAGGGCUCAACACAGCGUGGCAAAGUGCCUGUGGCUAGACUGCC
2. GGCAGAGCUCAACACAGCUUGGCAAAGUGGCUGUGGCUAGACUCCC

Output line:
[0.13, 0.31]

Your task in this section: give self-cleavage for each listed record.
1. GACAGAGCUCAACACAGCGUGGCAAGGUGGCUGUGGCUAGACUGCC
2. GGCAGAGGUCAACACAGCGUGGCAAAGUGGCUGUGGCUAGACUGGC

Output line:
1. 0.6
2. 0.08
